observed-property: melting point

Worked cases, answers included:
> print(dat)
                                   compound      obs.value
1  COc1cc(CBr)c(OC)cc1/C=C/c1cc(OC)c(CBr)cc1OC  165 to 167 °C
2  COc1ccc(Br)c(C(=O)N2CCN(S(=O)(=O)c3ccccc3)CC2)c1         180 °C
3  Cn1nc(-c2c(F)cccc2Cl)nc1-c1cccc([N+](=O)[O-])c1Cl  112 to 114 °C
4  COc1ccc(S(=O)(=O)C2(C(=O)O)CCN(Cc3ccc(Br)cc3)CC2)cc1         215 °C
5  COC(=O)c1ccc(-c2nc(-c3ccc(OC(F)F)cc3)co2)cc1  160 to 161 °C
6  O=C1c2ccccc2C(=O)N1Cc1noc(-c2ncn3c2[C@@H]2CCN2C(=O)c2c(Cl)cccc2-3)n1  189 to 192 °C
7     CC(C)(C)OC(=O)Nc1ccc([N+](=O)[O-])cc1  112 to 114 °C
8  CC(=O)NC1CCCc2sc(C(C)=O)cc21 (stereo unspecified)  168 to 172 °C

Given item Nc1cc(C(=O)NNC(=O)Cc2cccc(O)c2)ccc1O , the value recorded as its melting point is 264 to 265 °C

Given item CC=CCNc1cc(C(=O)O)cc(S(=O)(=O)Nc2ccc(NC(C)=O)cc2)c1Nc1ccc(NC(C)=O)cc1 , the value recorded as its melting point is 265 °C
